FYI, the data here is from paper PMC11129182.

Recorded inhibition at 1 µM values for a group of compounds are listed next.
target: PARK7 (Homo sapiens); test: Hit validation and pure-compound testing in the PARK7 FP assay with JYQ-107; format: biochemical; settings: crude compounds, 1 µM
Sequence (Q99497 whole entry): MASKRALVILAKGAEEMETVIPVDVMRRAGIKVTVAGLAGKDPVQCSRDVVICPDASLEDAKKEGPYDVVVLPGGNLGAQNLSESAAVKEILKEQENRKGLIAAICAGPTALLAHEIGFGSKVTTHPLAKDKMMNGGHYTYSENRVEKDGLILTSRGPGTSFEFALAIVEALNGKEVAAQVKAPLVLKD
Don't forget the unit after the number, please.

Here is how some compounds turned out for inhibition at 1 µM.
N#CN1CC[C@@H](C(=O)Nc2nc3c(s2)CN(C(=O)c2cc(-c4ccco4)on2)CC3)C1 :: 94.3%
N#CN1CC[C@@H](C(=O)Nc2nc3c(s2)CN(C(=O)c2cccc(COc4cccc(F)c4)c2)CC3)C1 :: 93.5%
N#CN1CC[C@@H](C(=O)Nc2nc3c(s2)CN(C(=O)c2ccc(Cn4cc(Br)cn4)o2)CC3)C1 :: 85.7%
Cc1nc(-c2cnn(C)c2)sc1C(=O)N1CCc2nc(NC(=O)[C@@H]3CCN(C#N)C3)sc2C1 :: 93.1%
N#CN1CC[C@@H](C(=O)Nc2nc3c(s2)CN(C(=O)C2CN(S(=O)(=O)C4CC4)C2)CC3)C1 :: 87.7%

Kindly note the recorded inhibition at 1 µM for N#CN1CC[C@@H](C(=O)Nc2nc3c(s2)CN(C(=O)c2cnn(-c4ccc(C(F)(F)F)cc4)c2)CC3)C1 , which is 93%

Kindly note the recorded inhibition at 1 µM for N#CN1CC[C@@H](C(=O)Nc2nc3c(s2)CN(C(=O)CCn2nc(C(F)(F)F)cc2C2CC2)CC3)C1 , which is 94.5%
